# measuredOn: T1, human NGF-Fc4 (IgG4-Fc) (human, UniProt P01138 122-241, limits assumed)
# T1 construct: not shown: human IgG4 Fc
# methodSummary: competition ELISA: antibody pre-incubated with human NGF-Fc4, binding to coated TrkA-Fc
Hi! Could you tag entries with IC50 below 0.07 µg/mL as Condition met, and those at or above as Condition not met? Much appreciated.

**Q:** Given Ab10 (antibody, human IgG1, V domains shown) VH: EVQLVQSGAEVKKPGATVKISCKVSGYTFITYWISWVQQAPGKGLEWMGAIDPSDSDARYSPSFQGRVTITADTSTDTAYMELSSLRSEDTAVYYCAKSDPGYSGYSLLYGFDSWGQGTLVTVSS VL: DIVMTQSPLSLPVTLGQPASISCRSSQSLVQRNGNTYLSWFQQRPGQPPRLLIYQVSNRYSGVPDRFSGSGSGTDFTLKISRVEAEDVGVYYCGQGAHLPLTFGQGTKVEIK , is recorded IC50 strictly lower than 0.07 µg/mL?
**A:** Condition not met

**Q:** Given Ab59 (antibody, human IgG1, V domains shown) VH: EVQLVQSGAEVKKPGESLKISCKISGYSFITYWISWVRQMPGKGLEWMGAIDPSDSDARYSPSFQGQVTISADKSISTAYLQWSSLKASDTAMYYCAKSDPGYSGYSLLYGFDSWGQGTLVTVSS VL: DIVMTQSPLSLPVTLGQPASISCRSSQSLVQRNGNTYLSWYQQRPGQPPRLLIYQVSNRYSGVPDRFSGSGSGTDFTLKISRVEAEDVGVYYCGQGAHLPLTFGQGTKVEIK , is recorded IC50 strictly lower than 0.07 µg/mL?
**A:** Condition not met

**Q:** Given Ab57 (antibody, human IgG1, V domains shown) VH: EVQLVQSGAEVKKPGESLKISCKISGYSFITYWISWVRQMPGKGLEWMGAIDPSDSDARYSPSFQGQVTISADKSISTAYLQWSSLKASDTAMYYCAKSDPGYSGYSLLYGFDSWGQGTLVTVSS VL: DIVMTQSPLSLPVTLGQPASISCRSSQSLVQRNGNTYLSWFQQRPGQSPRLLIYQVSNRYSGVPDRFSGSGSGTDFTLKISRVEAEDVGVYYCGQGAHLPLTFGQGTKVEIK , is recorded IC50 strictly lower than 0.07 µg/mL?
**A:** Condition not met

**Q:** Given Ab46 (antibody, human IgG1, V domains shown) VH: EVQLVQSGAEVKKPGESLKISCKGSGYSFITYWISWVRQMPGKGLEWMGAIDPSDSDARYSPSFQGQVTISADKSISTAYLQWSSLKASDTAMYYCAKSDPGYSGYSLLYGFDSWGQGTLVTVSS VL: DVVMTQSPLSLPVTLGQPASISCRSSQSLVQRNGNTYLSWFQQRPGQPPRLLIYQVSNRYSGVPDRFSGSGSGTDFTLKISRVEAEDVGVYYCGQGAHLPLTFGQGTKVEIK , is recorded IC50 strictly lower than 0.07 µg/mL?
**A:** Condition met

**Q:** Given Ab42 (antibody, human IgG1, V domains shown) VH: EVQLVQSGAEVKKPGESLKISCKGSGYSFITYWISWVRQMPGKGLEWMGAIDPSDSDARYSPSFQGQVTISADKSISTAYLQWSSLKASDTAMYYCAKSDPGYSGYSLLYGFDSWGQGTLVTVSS VL: DIVMTQTPLSSPVTLGQPASISCRSSQSLVQRNGNTYLSWYQQRPGQPPRLLIYQVSNRYSGVPDRFSGSGAGTDFTLKISRVEAEDVGVYYCGQGAHLPLTFGQGTKVEIK , is recorded IC50 strictly lower than 0.07 µg/mL?
**A:** Condition not met
